These measurements were taken from PubChem BioAssay AID1259407.

- Test system: CCRIS mutagenicity, Ames/micronucleus/aberration tests
- PROTOCOL DETAILS: CCRIS mutagenicity studies
- COND: Test System: AMES SALMONELLA TYPHIMURIUM; Strain/Indicator: TA1537; Metabolic Activation: NONE; Method: STANDARD PLATE
Active and inactive are the calls of the source. The rule behind the calls is not given here.
Pick one: TRUE = active, FALSE = inactive

Problem: What did this assay record as the result for O=C/C=C/C=C\c1ccc([N+](=O)[O-])cc1 ?
Solution: TRUE

Problem: Record: c1ccc([C@H]2N[C@H]2c2ccccc2)cc1
Solution: FALSE

Problem: Record: C[Si]1(C)O[Si](C)(C)O[Si](C)(C)O[Si](C)(C)O[Si](C)(C)O1
Solution: FALSE

Problem: Record: CCN(CC)c1ccc(N=Nc2c(Cl)cc([N+](=O)[O-])cc2[N+](=O)[O-])cc1
Solution: FALSE

Problem: Record: O=Nc1c(-c2ccc([N+](=O)[O-])cc2)nc2sccn12
Solution: TRUE

Problem: Record: CN(C)c1ccc(Cc2ccc(N(C)C)cc2)cc1
Solution: FALSE

Problem: Record: CNCCC=C1c2ccccc2CCc2ccccc21
Solution: FALSE

Problem: Record: O=[N+]([O-])c1cccc(OS(=O)(=O)c2cccc3cccnc23)c1
Solution: FALSE

Problem: Record: Nc1ccc(N)c2c1C(=O)c1cccc([N+](=O)[O-])c1C2=O
Solution: TRUE

Problem: Record: c1ccc2c(c1)-c1ccccc1C1NC21 (stereo unspecified)
Solution: TRUE

Problem: Record: CNC(=O)Oc1ccc2c(c1)[C@]1(C)CCN(C)[C@@H]1N2C
Solution: FALSE

Problem: Record: O=C(O)c1ccccc1
Solution: FALSE

Problem: Record: COc1cc(O)c2c(c1)C(=O)c1cc(C)cc(O)c1C2=O
Solution: FALSE

Problem: Record: CC(Cc1ccc(O)c(O)c1)C(C)Cc1ccc(O)c(O)c1 (stereo unspecified)
Solution: FALSE

Problem: Record: CCCCNC(=O)n1c(NC(=O)OC)nc2ccccc21
Solution: FALSE

Problem: Record: O=C(Nc1ccc(Br)cc1)c1cc(Br)cc(Br)c1O
Solution: FALSE

Problem: Record: CCCCCCCCCCCCCCCCCCO
Solution: FALSE

Problem: Record: Nc1cc([N+](=O)[O-])c(N)cc1F
Solution: TRUE

Problem: Record: COC1=CC(=O)C=CC1=Nc1c2ccccc2nc2ccccc12
Solution: FALSE

Problem: Record: Cc1c2ccccc2c(CCl)c2ccccc12
Solution: TRUE

Problem: Record: O=C(O)[C@H](O)[C@@H](O)C(=O)O
Solution: FALSE

Problem: Record: CCOC(=O)C1C(C=C(C)C)C1(C)C (stereo unspecified)
Solution: FALSE

Problem: Record: Nc1cccc2c1C(=O)c1cccc(N)c1C2=O
Solution: FALSE

Problem: Record: CC(=O)OC(C)=O
Solution: FALSE

Problem: Record: O=[N+]([O-])c1ccc(Nc2ccc(N=C=S)cc2)cc1
Solution: FALSE

Problem: Record: O=NN(CC(=O)O)CC(=O)O
Solution: FALSE

Problem: Record: Nc1cc(CCO)c(N)c([N+](=O)[O-])c1
Solution: FALSE

Problem: Record: O=C1c2cccc(O)c2C(=O)c2cccc(O)c21
Solution: TRUE

Problem: Record: CN(C)c1ccc([C@H]2C[C@]3(C)[C@@H](CC[C@]3(O)CCCO)[C@@H]3CCC4=CC(=O)CCC4=C32)cc1
Solution: FALSE

Problem: Record: CSC[C@H](NC(=O)COc1cccc2cnccc12)C(=O)N[C@@H](Cc1ccccc1)[C@H](O)C(=O)N1CSC[C@H]1C(=O)NC(C)(C)C
Solution: FALSE

Problem: Record: CCC(C)ON=O (stereo unspecified)
Solution: FALSE

Problem: Record: CCN(CC)c1cc(NC(C)=O)c(N=Nc2c(Br)cc([N+](=O)[O-])cc2[N+](=O)[O-])cc1OC
Solution: TRUE

Problem: Record: Nc1c2ccccc2nc2ccccc12
Solution: TRUE

Problem: Record: C=Cc1ccc(O)c(OC)c1
Solution: FALSE

Problem: Record: CCCCC(CC)COC(=O)c1ccc(C(=O)OCC(CC)CCCC)cc1 (stereo unspecified)
Solution: FALSE

Problem: Record: O=C1Nc2cc3ccccc3c3c4c(cc1c23)OCO4
Solution: FALSE

Problem: Record: CNCCCN1c2ccccc2CCc2ccccc21
Solution: FALSE

Problem: Record: C[C@@H]1Cc2c(Cl)cc(C(=O)NC(Cc3ccccc3)C(=O)O)c(O)c2C(=O)O1 (stereo partly specified)
Solution: FALSE

Problem: Record: COc1ccc(S(=O)(=O)n2ncc(Cl)c(Cl)c2=O)cc1
Solution: FALSE

Problem: Record: CCN(CCCl)CCCNc1c2ccccc2nc2c1ccc1ccccc12
Solution: TRUE

Problem: Record: Nc1ccc2c([nH]c3ccccc32)c1[N+](=O)[O-]
Solution: TRUE

Problem: Record: c1cc2c3c(cccc3c1)C1NC21 (stereo unspecified)
Solution: TRUE

Problem: Record: CN1CCC(=C2c3ccccc3C=Cc3ccccc32)CC1
Solution: FALSE

Problem: Record: c1ccc2c(c1)CCCC2
Solution: FALSE

Problem: Record: O=c1c(O)c(C2=CC(O)(CCO)C(O)(CCO)C=C2)oc2c1C(O)=CC(O)(CCO)C2 (stereo unspecified)
Solution: FALSE

Problem: Record: CCN(CC)CCNc1ccc(C)c2sc3ccccc3c(=O)c12
Solution: TRUE

Problem: Record: O=[N+]([O-])C1=Cc2cc3cc4ccccc4cc3c3cccc1c23
Solution: TRUE

Problem: Record: C[N+]1(C)CCOCC1
Solution: FALSE

Problem: Record: Cl[Si](Cl)(Cl)Cl
Solution: FALSE

Problem: Record: CCO[Si](C)(C)OCC
Solution: FALSE

Problem: Record: CCCOC(=O)c1cc(O)c(O)c(O)c1
Solution: FALSE
